- TARGET SYSTEM: DOR (Homo sapiens, UniProt P41143)
- Sequence (P41143 whole entry): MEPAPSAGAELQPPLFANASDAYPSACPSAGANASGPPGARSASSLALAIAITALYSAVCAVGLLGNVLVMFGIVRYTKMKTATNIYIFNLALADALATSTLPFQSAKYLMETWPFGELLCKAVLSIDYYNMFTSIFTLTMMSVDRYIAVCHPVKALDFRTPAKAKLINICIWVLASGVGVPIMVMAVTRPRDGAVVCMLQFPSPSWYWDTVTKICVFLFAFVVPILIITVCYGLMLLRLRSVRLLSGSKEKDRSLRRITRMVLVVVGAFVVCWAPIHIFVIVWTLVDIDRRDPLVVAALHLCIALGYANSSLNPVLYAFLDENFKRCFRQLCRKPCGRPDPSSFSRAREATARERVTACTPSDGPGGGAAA
- PROTOCOL NOTES: Gi signaling (inhibition of cAMP) in opioid-receptor-expressing HEK cells, DOR
PARAMETER MEASURED: pIC50
// scale note: pIC50 = -log10(conc_M); give the bare number

Any idea what pIC50 came out for NC(=O)CNC(=O)[C@@H]1CCC(=O)NCCCC[C@@H](NC(=O)[C@@H](N)Cc2ccc(O)cc2)C(=O)N[C@@H](Cc2c[nH]c3ccccc23)C(=O)N[C@@H](Cc2ccccc2)C(=O)N1 [ZH853] on DOR (Homo sapiens, UniProt P41143)?
6.42
